Exercise: for every item that follows, state its recorded EC50.
- tested.target: Sphingosine 1-phosphate receptor 3 (Homo sapiens, UniProt Q99500)
- Sequence (Q99500 whole entry): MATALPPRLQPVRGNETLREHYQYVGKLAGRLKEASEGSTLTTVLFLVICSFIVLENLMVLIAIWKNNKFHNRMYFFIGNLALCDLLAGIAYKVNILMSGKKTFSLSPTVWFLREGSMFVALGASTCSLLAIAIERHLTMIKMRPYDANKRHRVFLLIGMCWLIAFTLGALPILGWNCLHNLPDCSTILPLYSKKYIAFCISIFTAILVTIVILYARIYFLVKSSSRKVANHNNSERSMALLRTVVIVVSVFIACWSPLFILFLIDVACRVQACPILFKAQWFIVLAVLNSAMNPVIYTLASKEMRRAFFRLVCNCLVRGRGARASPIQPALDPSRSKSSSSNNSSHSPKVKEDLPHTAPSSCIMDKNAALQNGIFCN
- test.description: Agonist activity at human S1P3 receptor expressed in human EDG3-bla U2OS cells after 18 hrs by beta-arrestin recruitment assay
Write the value in µM as a bare number.

Q) Requested field: EC50. Item: N[C@@H](CO)COc1cc(Cl)c(-c2nnc(N3CCN(C(=O)c4cccc(Cl)c4)CC3)s2)cc1F
A) 0.38

Q) Requested field: EC50. Item: CC1(C)CC(C(=O)N2CCN(c3noc(-c4cc(F)c(OC[C@@H](N)CO)cc4Cl)n3)CC2)C1
A) 0.45

Q) Requested field: EC50. Item: N[C@@H](CO)COc1cc(Cl)c(-c2nnc(N3CCN(C(=O)C4CCCC4)CC3)s2)cc1F
A) 0.41

Q) Requested field: EC50. Item: CC(C)(C(=O)N1CCN(c2noc(-c3cc(F)c(OC[C@@H](N)CO)cc3Cl)n2)CC1)C(F)(F)F
A) 4.7

From: ChEMBL document CHEMBL3351264
